test system: DU-145; test: NCI tumour cell line growth inhibition, 48 h
The source made the active and inactive calls. Cut-off read from the data, not from the text of the source: active = GI50 up to about 1.1 µM and inactive = higher. Starred links: 1 amine or outer side, 2 acyl side, 3 side chain; linkers in the order of their positions; H or OH if unused. Positions of bridges follow the written chain, without caps; N, C: chain ends. Non-standard residues stand in square brackets, D forms with d. Residues, ends and D or L forms follow the SMILES beside them. Chains are numbered I, II in the order given. *: point of attachment. Actinocin(9to1) = Cc1c2oc3c(C)ccc(C(=O)[*:1])c3nc-2c(C(=O)[*:2])c(N)c1=O; NMeV = CN[CH](C(=O)O)C(C)C; Ac5c = NC1(C(=O)O)CCCC1; Cbz = O=C(OCc1ccccc1)*; Boc = CC(C)(C)OC(=O)*; Sar = CNCC(=O)O; tBu = CC(C)(C)*
For each record, write down the corresponding GI50.

For the compound `O=C(NN=C1CCN(Cc2ccccc2)CC1)C(O)(c1ccccc1)c1ccccc1` , what GI50 is on record?
> 100 µM (inactive)

For the compound `Cc1c(-c2ccccc2)[nH]c2cc(Cl)ccc2c1=O` , what GI50 is on record?
> 100 µM (inactive)

For the compound `COc1ccc(C(=O)/C=C/c2ccc(OCCSCCCCCCCCCCSCCOc3ccc(/C=C/C(=O)c4ccc(OC)c(OC)c4)cc3)cc2)cc1OC` , what GI50 is on record?
> 100 µM (inactive)

For the compound NC12Oc3cc(O)cc(O)c3C1(c1ccc(Cl)cc1)c1c(O)cc(O)cc1O2 (stereo not given) , what GI50 is on record?
> 100 µM (inactive)

For the compound `Sc1nc2c(c(-c3nc(S)nc4c3CCCCCCCCCC4)n1)CCCCCCCCCC2` , what GI50 is on record?
> 100 µM (inactive)

For the compound `O=C(O)COc1ccc(C(=O)/C(SS/C(C(=O)c2ccc(OCC(=O)O)c(Cl)c2Cl)=C2\C=C(c3ccc(Br)cc3)SS2)=C2/C=C(c3ccc(Br)cc3)SS2)c(Cl)c1Cl` , what GI50 is on record?
16.8 µM (inactive)

For the compound `Cc1ccc(S(=O)(=O)N2CCCN(S(=O)(=O)c3ccc(C)cc3)CC2)cc1` , what GI50 is on record?
> 100 µM (inactive)

For the compound O=c1ccn(C2OC(CO)C(O)C2O)c(=O)[nH]1 (stereo not given) , what GI50 is on record?
> 1000 µM (inactive)

For the compound c1ccc2c(C3CCN(CCN4CCOCC4)C3)c[nH]c2c1 (stereo not given) , what GI50 is on record?
> 100 µM (inactive)

For the compound COC(=O)C1(NC(=O)C(Cc2ccccc2)NC(=O)C(NC(=O)C(CCCCNC(=O)OC(C)(C)C)NC(=O)C(Cc2c[nH]c3ccccc23)NC(=O)C(Cc2ccccc2)NC(=O)OCc2ccccc2)C(C)OC(C)(C)C)CCCC1 (stereo not given) (Cbz-FWK(Boc)T(tBu)F[Ac5c]-OMe; configuration not given here) , what GI50 is on record?
> 100 µM (inactive)

For the compound `CN(C)CCCN1c2ccccc2CCc2cc([N+](=O)[O-])ccc21` , what GI50 is on record?
18.2 µM (inactive)

For the compound `C/C(=N/NC(=S)N1CCCC1)c1cccc(/C(C)=N\NC(=S)N2CCCC2)n1` , what GI50 is on record?
2.61 µM (inactive)

For the compound C=C1C(=O)O[C@H]2C1C[C@H](O)[C@@]1(C)OC1CC[C@@]1(C)O[C@H]21 (stereo not given in full) , what GI50 is on record?
34.5 µM (inactive)

For the compound `N#CC1=C(N)N2C(=O)/C(=C/c3ccccc3O)N=C2S1` , what GI50 is on record?
> 100 µM (inactive)

For the compound `O=C(O)CSc1nnc(CCCCCCCCc2nnc(SCC(=O)O)o2)o1` , what GI50 is on record?
> 100 µM (inactive)

For the compound `CCn1c(CCl)nc2c1C(=O)c1ccccc1C2=O` , what GI50 is on record?
2.67 µM (inactive)

For the compound Cc1c2oc3c(C)ccc(C(=O)NC4C(=O)NC(Cc5ccc(O)cc5)C(=O)N5CCCC5C(=O)N(C)CC(=O)N(C)C(C(C)C)C(=O)OC4C)c3nc-2c(C(=O)NC2C(=O)NC(Cc3ccc(O)cc3)C(=O)N3CCCC3C(=O)N(C)CC(=O)N(C)C(C(C)C)C(=O)OC2C)c(N)c1=O (stereo not given) (I: TYP[Sar][NMeV] / II: TYP[Sar][NMeV]; ester I:1-I:C, II:1-II:C; linker I:N-II:N via Actinocin(9to1); configuration not given here) , what GI50 is on record?
1.43 µM (inactive)

For the compound CC1(C)OCC2OC3([C@@H]4OC(C)(C)O[C@H]4CO)OC(C)(C)OC3C2O1 (stereo not given in full) , what GI50 is on record?
> 100 µM (inactive)

For the compound `Cn1c(=O)c2c(ncn2Cc2ccc(O)c([N+](=O)[O-])c2)n(C)c1=O` , what GI50 is on record?
> 100 µM (inactive)

For the compound `Cc1ccc(-c2cs/c(=N\c3ccccc3)n2NC(=O)c2ccncc2)cc1` , what GI50 is on record?
56.2 µM (inactive)
